measure-name: melting point

Prompt: Answer with reported melting point of O=C1NC(C(Cl)(Cl)Cl)Oc2ccccc21 (stereo unspecified)
Response: 175 to 177 °C

Prompt: Answer with reported melting point of Nc1nc(N2CCOCC2)nc2ccccc12
Response: 216 to 219 °C

Prompt: Answer with reported melting point of CCCCOc1cc(/C=C/C(=O)NS(=O)(=O)CCC(C)C)n(Cc2ccc(C(F)(F)F)cc2Cl)n1
Response: 89.5 to 90.5 °C

Prompt: Answer with reported melting point of CCOC(=O)/C=C/c1ccc(OCC2CCCO2)cc1Oc1ncc(C(F)(F)F)cc1Cl (stereo unspecified)
Response: 84 to 86 °C

Prompt: Answer with reported melting point of ClC1=Nc2nc(C3CCCC3)n(Cc3ccccc3)c2C2=N[C@H](Cc3ccccc3)CN12
Response: 124 to 125 °C

Prompt: Answer with reported melting point of Cn1cc(C(=O)NCc2ccc(Cl)cc2)c(=O)c2cc(CN3CCOCC3)cc(C#CCC[C@@H]3COC(=O)N3)c21
Response: 171 to 173 °C

Prompt: Answer with reported melting point of CCCCCCCCCC(=O)Nc1cc(N)cc(NC(=O)CCCCCCCCC)c1
Response: 152 to 154 °C

Prompt: Answer with reported melting point of CC(=O)c1ccc(SCC(=O)O)cc1
Response: 151 to 153 °C

Prompt: Answer with reported melting point of CCOC(=O)c1cccc(NC(=O)N[C@@H]2N=C(c3ccccc3)c3ccccc3N(C)C2=O)c1
Response: 140 to 142 °C

Prompt: Answer with reported melting point of CCOC(=O)N[C@@H]1CCc2ccccc2[C@H]1Cl (relative stereo)
Response: 124 to 126 °C

Prompt: Answer with reported melting point of CCCOc1ccccc1-c1nc2nc(SC)nnc2c(=O)[nH]1
Response: 247 to 249 °C

Prompt: Answer with reported melting point of CCn1ncc2c(N)c3c(nc21)CCc1ccccc1C3=O
Response: 132 to 133 °C

Prompt: Answer with reported melting point of C=CCOc1cc(=O)n(-c2ccccc2)c2ncccc12
Response: 171 to 174 °C

Prompt: Answer with reported melting point of COc1cc(Cl)cc(C)c1Nc1nc2c(Cl)ccc(C(O)(C(C)C)C(C)C)c2n1C
Response: 218 to 219 °C

Prompt: Answer with reported melting point of O=[N+]([O-])C=C1NCCN1Cc1cc(Br)no1
Response: 202 °C

Prompt: Answer with reported melting point of O=S1(=O)N=CN(C2CC2)c2ccc(C(F)(F)F)cc21
Response: 160 to 162 °C

Prompt: Answer with reported melting point of O=C(O)C1CNC(C(=O)O)c2[nH]c3ccccc3c21 (stereo unspecified)
Response: 230 to 231 °C

Prompt: Answer with reported melting point of CCC(=O)C1=C(O)CC(c2c(C)c(C)c3c(c2C)OC(C)(C)C3)CC1=O (stereo unspecified)
Response: 74 to 76 °C

Prompt: Answer with reported melting point of CCCCCCCCCCCCCCCCSCCCCCCCCCCC(=O)NN
Response: 108 °C

Prompt: Answer with reported melting point of N#Cc1cc(-c2ccoc2)c2ccc(COc3cc(F)cc(-c4ccoc4)c3)cc2n1
Response: 156 to 159 °C

Prompt: Answer with reported melting point of Cc1ccnc(N=C2SC[C@@H]3Cc4ccccc4CN23)n1
Response: 179 °C

###

measure-name: melting point

Prompt: Answer with reported melting point of O=C(O)c1cccc(NCc2cccs2)c1C(=O)O
Response: 223 to 225 °C

Prompt: Answer with reported melting point of Cc1oc(C=Cc2ccccc2)nc1CCl
Response: 108 to 109 °C

Prompt: Answer with reported melting point of COc1cccc(CNC(=O)c2nc3scc(COCc4ccc(C(=O)O)cc4)c3c(=O)[nH]2)c1
Response: 229 to 230 °C

Prompt: Answer with reported melting point of COC1=C(OC)C(=O)C2=C(CCC(CCOc3ccc(NC(C)=O)cc3)CC2)C1=O
Response: 151 to 154 °C

Prompt: Answer with reported melting point of COP(=O)(Cc1ccc(-c2nc3ccccc3s2)cc1)OC
Response: 130 °C

###

So I've got a bunch of molecules here, and I need their melting point values.

Prompt: Answer with reported melting point of CCOC(=O)C(=NO)c1cnsn1
Response: 60 to 66 °C

Prompt: Answer with reported melting point of OC(c1nn(-c2c(Cl)cc(C(F)(F)F)cc2Cl)cc1C1CC1(Br)Br)C(F)(F)F (stereo unspecified)
Response: 119 to 121 °C

Prompt: Answer with reported melting point of Cc1c(C#N)c(C(F)(F)F)nn1-c1c(Cl)cc(C(F)(F)F)cc1Cl
Response: 90 to 92 °C

Prompt: Answer with reported melting point of CCCCOc1ccc(-c2ccc(=O)[nH]n2)cc1OC
Response: 165 °C

Prompt: Answer with reported melting point of COc1ccc(Oc2ccc3ccccc3n2)cc1
Response: 96.5 to 98 °C

Prompt: Answer with reported melting point of O=C(N1CCNc2ccccc2C1)n1ccnc1
Response: 98 to 101 °C

Prompt: Answer with reported melting point of Cc1oc2c(NC(=O)c3c(Cl)cccc3Cl)cc(C(N)=O)cc2c1C
Response: > 250 °C

Prompt: Answer with reported melting point of CC(C)C[C@H](NC(=O)[C@@H](O)[C@@H](Cc1ccc(S(C)(=O)=O)cc1)NC(=O)OCc1ccccc1)C(=O)OCc1ccccc1
Response: 136 to 138 °C

Prompt: Answer with reported melting point of O=C(c1ccc2nonc2c1)N1C2CCCC1COC2
Response: 128 to 130 °C

Prompt: Answer with reported melting point of CNS(=O)(=O)c1cccc(-c2ccc3cccc(N4CCN(C)CC4)c3c2)c1
Response: 148 °C

Prompt: Answer with reported melting point of OC(c1ccc(C(F)(F)F)cc1)c1ccc(C(F)(F)F)cc1
Response: 80 °C

Prompt: Answer with reported melting point of NC(=O)N(O)CCNC(=O)c1ccc(-c2ccccc2)cc1
Response: 160 to 162 °C

Prompt: Answer with reported melting point of O[C@H]1c2cc(OCc3ccncc3)ccc2OC[C@H]1Cc1cccnc1 (relative stereo)
Response: 100 to 102 °C

Prompt: Answer with reported melting point of CN1CCCCC1CCc1ccccc1NC(=O)c1ccc([N+](=O)[O-])cc1 (stereo unspecified)
Response: 162 to 164 °C

Prompt: Answer with reported melting point of CC(=O)OCc1nc2cc3c(cc2c(=O)n1COC(=O)C(C)(C)C)C(=O)CC3
Response: 144 °C

Prompt: Answer with reported melting point of COCC(=O)Nc1c(C(=O)CC(=O)Nc2nccs2)cccc1C(F)(F)F
Response: 152 °C

Prompt: Answer with reported melting point of Cc1cccc(C(=O)c2[nH]c3ccc(Cl)cc3c2CC(=O)O)n1
Response: 225 to 226 °C

Prompt: Answer with reported melting point of COc1ccc(C(=O)N(C)C)c(-c2ccccc2)c1OC
Response: 101 to 102 °C

Prompt: Answer with reported melting point of Clc1ccc(CN2CC=C(/C=C/c3ccc4c(c3)OCO4)CC2)cc1
Response: 122 to 124 °C

Prompt: Answer with reported melting point of CCCC(CCC)n1nnc2c(Cl)nc(C)nc21
Response: 92 to 93 °C

Prompt: Answer with reported melting point of CCCCC(CC)COc1c(-c2ccc(S(C)(=O)=O)cc2)cnn(-c2ccc(F)cc2)c1=O (stereo unspecified)
Response: 120 to 122 °C

###

measure-name: melting point

Prompt: Answer with reported melting point of CCn1cc(C(=O)Nc2nccs2)c2ccc(Cl)cc21
Response: 234 to 236 °C

Prompt: Answer with reported melting point of c1ccc2c(c1)NCS2
Response: 60 to 62 °C

Prompt: Answer with reported melting point of CCOC(=O)C(=O)Nc1ccc2c(c1)-c1c(c(C(=O)C(C#N)C(=O)Nc3ccccc3)nn1-c1ccccc1)CS2 (stereo unspecified)
Response: 273 to 277 °C

Prompt: Answer with reported melting point of CC#CCn1nnc2cc3c(=O)n(C(C)Cn4nccn4)nnc3cc2c1=O (stereo unspecified)
Response: 154 to 156 °C

Prompt: Answer with reported melting point of CC(=O)Nc1cc(C(C)(C)C)ccc1N1CCOCC1
Response: 112 to 113 °C

Prompt: Answer with reported melting point of Cc1nc2c(O[C@@H]3c4ccccc4C[C@H]3O)cc(C(=O)N(C)C)cn2c1C (relative stereo)
Response: 122 °C

Prompt: Answer with reported melting point of CNC(=O)c1ccc2c(c1)C(=O)N1CCC[C@@H]1CO2
Response: 186 to 189 °C

Prompt: Answer with reported melting point of C=C=CC1(NC(=O)c2ccccc2)CCCNC1=O (stereo unspecified)
Response: 203 to 204 °C

Prompt: Answer with reported melting point of CCC(OC)C1(OC)OC12CO2 (stereo unspecified)
Response: 68 to 70 °C

Prompt: Answer with reported melting point of CCN1C(=O)C(C)(C)C(=O)N(C)c2cc(CN(CCn3cc(C)c4occc4c3=O)Cc3cc(C)nn3C)ccc21
Response: 193 to 195 °C

Prompt: Answer with reported melting point of CN(CCOc1ccc(CCOCCc2ncn[nH]2)cc1)c1nc2ccccc2o1
Response: 127 to 129 °C

Prompt: Answer with reported melting point of CN1CC(CCCl)Oc2ncccc2C1=S (stereo unspecified)
Response: 134 to 136 °C

Prompt: Answer with reported melting point of CCc1nc(C(=O)c2c(C)cc(C)cc2C)c(C=O)n1C(CC)CC
Response: 119 to 120 °C

Prompt: Answer with reported melting point of O=C(c1ccc(Cl)cc1Cl)C1(c2cccnc2)CC1
Response: 83 °C

Prompt: Answer with reported melting point of CCS(=O)(=O)c1c(Cl)nc(Cl)nc1Cl
Response: 135 to 136 °C

Prompt: Answer with reported melting point of CC1(C)CC(=O)c2cc(C#N)c(N3CCN(c4ccccc4)CC3)nc2C1
Response: 167 to 170 °C

Prompt: Answer with reported melting point of C=C(Cc1ccccc1)C(=O)NN1CCNCC1
Response: 78 °C

Prompt: Answer with reported melting point of CC(O)CNc1nc(NCc2ccccc2N)c2ncn(C(C)C)c2n1 (racemic)
Response: 175 to 179 °C

Prompt: Answer with reported melting point of CN(CC1CO1)S(=O)(=O)C(F)(F)C(F)(F)C(F)(F)C(F)(F)S(=O)(=O)N(C)CC1CO1 (stereo unspecified)
Response: 77 to 79 °C

Prompt: Answer with reported melting point of N#Cc1cccc2c1CN(C1CCC(=O)NC1=O)C2=O (stereo unspecified)
Response: 312 to 314 °C

Prompt: Answer with reported melting point of CCCCOc1c(CNC(=O)OC(C)(C)C)n(CC(C)C)c(=O)c2ccc(C(=O)O)cc12
Response: 185 to 186 °C
